Measured values drawn from the Deep4Chem optical property database for this set.

# Protocol summary: solvent given as SMILES
# Assay context: in CN(C)C=O
This listing pairs compounds with measured absorption maximum.
Write down the numeric answer in nm and omit the unit.

Suppose we examine the compound `CCN(CC)c1ccc2cc(-c3ccc(S(C)(=O)=O)cc3)oc(=O)c2c1` ; what absorption maximum value has been reported?
379

Suppose we examine the compound `CCN(CC)c1ccc2cc(/C=C/C(O)=C3\CC/C(=C\c4cc5ccc(N(CC)CC)cc5oc4=O)C3=O)c(=O)oc2c1` ; what absorption maximum value has been reported?
546

Suppose we examine the compound `CN(C)c1ccc(/C=C/C=C/c2nc3ccccc3o2)cc1` ; what absorption maximum value has been reported?
419

Suppose we examine the compound `O=c1[nH]nc(-c2ccc(/C=C/c3ccc(-c4n[nH]c(=O)o4)cc3)cc2)o1` ; what absorption maximum value has been reported?
334

Suppose we examine the compound `CCCCCCC(CCCCCC)N1C(=O)c2cccc3c(-c4ccc([Si](C)(C)C)cc4)ccc(c23)C1=O` ; what absorption maximum value has been reported?
356

Suppose we examine the compound `CCN(CC)c1cccc2c1ccc1c(=O)oc(-c3ccc(C(F)(F)F)cc3)cc12` ; what absorption maximum value has been reported?
394
